System: SW-620
measurement notes: NCI tumour cell line growth inhibition, 48 h
Calls of active or inactive are those of the source. Rule as the data show it: active = GI50 up to about 1.1 µM and inactive = higher.
Listed molecules paired with reported GI50
measured quantity: GI50

molecule: Cc1ccc(S(=O)(=O)SCc2ccccc2)cc1
measured quantity: GI50
result: 4.31 µM (inactive)

molecule: O=CN/C=C/c1cccc(O)c1
measured quantity: GI50
result: 69.7 µM (inactive)

molecule: O=C1CSC(c2ccc([N+](=O)[O-])cc2)N1c1ccc(-c2ccc(-n3c(-c4ccccc4)nc4ccccc4c3=O)cc2)cc1 (configuration not stated)
measured quantity: GI50
result: > 100 µM (inactive)

molecule: O=P(O)(Cc1ccccc1)OCC1(O)OCC(O)C(O)C1O (configuration not stated)
measured quantity: GI50
result: > 10 µM (inactive)

molecule: CN(C)Cc1cc(/N=N/c2ccccc2Cl)ccc1O
measured quantity: GI50
result: 13.3 µM (inactive)

molecule: C[C@]12CC[C@H](O)C=C1CC[C@@H]1[C@@H]2CC[C@]2(C)C(c3ccc(=O)oc3)CC[C@]12O (some centres not stated)
measured quantity: GI50
result: 0.0149 µM (active)

molecule: C=CCN(N=O)C(=O)N(CCC)CCCC(NC(C)=O)C(=O)NCc1ccccc1 (configuration not stated)
measured quantity: GI50
result: > 100 µM (inactive)

molecule: O=C(O)CNCc1c2ccccc2nc2ccccc12
measured quantity: GI50
result: 26.4 µM (inactive)

molecule: CCc1cccc(CC)c1Nc1nc2c(s1)C(=O)c1ccccc1C2=O
measured quantity: GI50
result: 26.1 µM (inactive)

molecule: Cc1cccc(C)c1NC(=O)C(=O)CC(=O)c1cccc([N+](=O)[O-])c1
measured quantity: GI50
result: > 100 µM (inactive)

molecule: Cc1ccccc1NC(=O)Cc1nc2ccccc2s1
measured quantity: GI50
result: 19.8 µM (inactive)

molecule: C=CCN(N=O)C(=O)N(CCCC(NC(C)=O)C(=O)NCc1ccccc1)Cc1ccccc1 (configuration not stated)
measured quantity: GI50
result: 61.4 µM (inactive)

molecule: CC(=O)NC(ON1C(=O)COc2ccccc21)C(Cl)(Cl)Cl (configuration not stated)
measured quantity: GI50
result: > 100 µM (inactive)

molecule: CCCCCC(=O)OCCOCCOCCOCCOCCOCc1ccccc1
measured quantity: GI50
result: > 100 µM (inactive)

molecule: O=C(/C=C\Nc1ccccc1O)C(F)(F)F
measured quantity: GI50
result: > 100 µM (inactive)

molecule: Cn1c2ccccc2c2[nH]c3ccccc3c(=O)c21
measured quantity: GI50
result: 88.3 µM (inactive)

molecule: COc1cc(C2C(C(=O)O)=C(CO)Oc3cc4c(cc32)OCO4)cc(OC)c1OC (configuration not stated)
measured quantity: GI50
result: > 100 µM (inactive)

molecule: O=C(c1cc2ccccc2[nH]1)N1C2CCC1CN(CCOC(c1ccc(F)cc1)c1ccc(F)cc1)CC2 (configuration not stated)
measured quantity: GI50
result: > 100 µM (inactive)

molecule: C=C1C(=O)[C@]23[C@H](O)[C@H]1CC[C@H]2[C@@]12CO[C@@]3(O)C[C@@H]1C(C)(C)CC[C@@H]2O [MEGATHYRIN A]
measured quantity: GI50
result: 5.5 µM (inactive)

molecule: COc1cc2c(OC)cc1CSCc1sc(C)c(c1Br)CSC2
measured quantity: GI50
result: > 100 µM (inactive)

molecule: N#CCC1C2CC3C(C2=O)C13 (configuration not stated)
measured quantity: GI50
result: > 100 µM (inactive)

molecule: CC(C)(C)c1cc(Cc2ccc([N+](C)(C)C)cc2)c(O)c(C(C)(C)C)c1
measured quantity: GI50
result: 23.2 µM (inactive)

Data credit: ChEMBL document CHEMBL1201862
